Structures can show the parent of a compound that is named as a salt.
readoutType: melting point

Please review the following examples before continuing.
COc1cccc2[nH]c(-c3ccccc3)c(CCN3CCCCC3)c12 : 260 to 262 °C
Cc1ccc2[nH]c(-c3ccccc3)c(CCN3CCCCC3)c2c1 (as salt: oxalate) : 163 to 164 °C
COc1cccc2c(CCN3CCCCC3)c(-c3ccccc3)[nH]c12 (as salt: oxalate) : 203 to 205 °C
Brc1cccc2[nH]c(-c3ccccc3)c(CCN3CCCCC3)c12 (as salt: oxalate) : > 230 °C
Fc1cc(F)c2[nH]c(-c3ccccc3)c(CCN3CCCCC3)c2c1 (as salt: oxalate) : 185 to 187 °C

# get_value(readout='melting point', item= Fc1ccc2[nH]c(-c3ccccc3)c(CCN3CCCCC3)c2c1 (as salt: trifluoroacetic acid salt) )
141 to 143 °C

# get_value(readout='melting point', item= Brc1cccc2c(CCN3CCCCC3)c(-c3ccccc3)[nH]c12 (as salt: oxalate) )
206 to 207 °C

# get_value(readout='melting point', item= Cc1cccc2c(CCN3CCCCC3)c(-c3ccccc3)[nH]c12 (as salt: oxalate) )
159 to 161 °C

# get_value(readout='melting point', item= c1ccc(-c2ccc3c(CCN4CCCCC4)c(-c4ccccc4)[nH]c3c2)cc1 (as salt: oxalate) )
129 to 131 °C

# get_value(readout='melting point', item= Clc1cccc2c(CCN3CCCCC3)c(-c3ccccc3)[nH]c12 (as salt: oxalate) )
178 to 179 °C

----------
// values below are reported melting point
Structures can show the parent of a compound that is named as a salt.

Brc1ccc2[nH]c(-c3ccccc3)c(CCN3CCCCC3)c2c1 (as salt: oxalate) : 121 to 122 °C
Brc1ccc2c(CCN3CCCCC3)c(-c3ccccc3)[nH]c2c1 (as salt: oxalate) : > 230 °C
Fc1ccc2c(CCN3CCCCC3)c(-c3ccccc3)[nH]c2c1 (as salt: oxalate) : 214 to 215 °C

# evaluate next
# get_value(readout='melting point', item= CC(Cc1c(-c2ccccc2)[nH]c2ccccc12)N1CCCCC1 (stereo not shown) (as salt: oxalate) )
240 °C
